# target_system: T1, MMP-7 (UniProt P09237 95-267, limits assumed)
# T1 construct: also called matrix metalloproteinase-7
# T1 sequence (looked up): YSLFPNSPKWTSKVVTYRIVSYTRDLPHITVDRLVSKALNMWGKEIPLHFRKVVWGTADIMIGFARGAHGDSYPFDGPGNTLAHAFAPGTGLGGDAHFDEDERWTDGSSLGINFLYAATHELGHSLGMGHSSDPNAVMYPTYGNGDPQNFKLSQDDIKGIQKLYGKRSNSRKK
# test_method_notes: enzyme inhibition, FRET peptide substrate
property_label: pKi
// pKi is dimensionless: -log10 of concentration (M)

Task item: Look up pKi: H-PRCGNPDVANYNFFPRKPK-OH (Synthesized by Sigma-Genosys, >95% pure by RP-HPLC; Free termini; the acetylated/amidated Ac-19-mer was used only in migration assays; also called 19mer peptide) [19-mer (SEQ ID NO:11) PRCGNPDVANYNFFPRKPK]
Reply: 4.64
